# tested.system: T1, Recombinant SARS-CoV-2 N protein His tagged (SARS-CoV-2, UniProt P0DTC9 1-419)
# T1 construct: also called nucleocapsid (N) protein; recombinant HIS tagged SARS-CoV-2 N protein
# assay.name: BLI (Octet Red 96E), mAb on anti-mouse Fc biosensor, N protein in solution, global 1:1 fit
measured.property: kon (M⁻¹ s⁻¹)
Report as a plain number; the unit M⁻¹ s⁻¹ is understood.

Qu. I am curious: what kon value has been reported for SCT-Pa11 (antibody, mouse IgG1, kappa, V domains shown) VH: EVQLQQSGPELVKPGASVKMSCKASGYTFTSYVIHWVKQKPGQGLEWIGYINPYNDGTEYNEKFKGKATLTSDKSSSTAYMELSSLTSEDSAVYYCSRDDYNNRFAYWGPGTLVTVSA VL: DIQMTQSPASLSASVGETVTITCRPSENIYSYLAWYQQKQGKSPQLLVYNAKTLVEGVPSRFSGSGSGTQFSLKINSVQPEDCGSYYCLHHFGTPWTFGGGTILEIKR ?
Ans. 517000

Continue with the binder presented below.
Qu. I am curious: what kon value has been reported for SCT-Pa01 (antibody, mouse IgG1, kappa, V domains shown) VH: QVTLKESGPGILQPSQTLSLTCSFDGFSLSTFGMGVGWIRQPSGRGLEWLAHIWWDDDKNYKPALKSRLTISKDTSKNQVFLKIANVDTADTATYYCTRMREDSSDYVYYIMDYWGQGTSVIVAS VL: QIVLTQSPSIMSASPGEKVTISCSASSSVSYMYWYQQKPGSSPRPWIYRTSNLASGVPARFSGSGSGTSYSLTITSMEAEDAATYYCQLYHSYPPTWTFGGGTKLEIKR ?
Ans. 442000

Reference source: patent US20240059762A1
